Test system: Escherichia coli BW25113
measuredQuantity: MIC

Prompt: Data request, read-out MIC, for `CC(C)C[C@H](NC(=O)[C@H](Cc1ccc(O)cc1)NC(=O)[C@@H]1CCCN1)C(=O)N1CCC[C@H]1C(=O)N[C@@H](CCCN=C(N)N)C(=O)N1CCC[C@H]1C(=O)NCC(=O)N[C@@H](CCCN=C(N)N)C(=O)N[C@@H](CCCN=C(N)N)C(=O)N1CCC[C@H]1C(=O)N[C@@H](CCCN=C(N)N)C(=O)N[C@@H](Cc1ccccc1)C(=O)N1CCC[C@H]1C(=O)N1CCC[C@H]1C(=O)N1CCC[C@H]1C(=O)N[C@@H](Cc1ccccc1)C(=O)N1CCC[C@H]1C(=O)O`
Completion: ≥ 64 µM
